assayed.system: LHRH rat pituitary receptor (Rattus norvegicus, UniProt P30969)
Construct: from tissue; host or cells: rat pituitary
Sequence (P30969 1-327): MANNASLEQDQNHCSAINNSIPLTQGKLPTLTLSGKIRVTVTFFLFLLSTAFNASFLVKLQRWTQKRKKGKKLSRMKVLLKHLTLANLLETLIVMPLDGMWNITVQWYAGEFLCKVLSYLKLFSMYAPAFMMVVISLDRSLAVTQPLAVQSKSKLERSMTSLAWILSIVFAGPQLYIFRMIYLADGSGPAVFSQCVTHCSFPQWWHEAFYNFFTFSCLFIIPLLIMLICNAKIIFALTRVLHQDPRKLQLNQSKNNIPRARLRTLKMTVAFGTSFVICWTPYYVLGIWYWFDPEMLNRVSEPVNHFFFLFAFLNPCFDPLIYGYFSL
protocol.text: LHRH rat pituitary receptor binding (in vitro)
test.parameters: method of Haviv et al. J. Med. Chem. 32: 2340-2344 (1989), read-out: pKI (receptor binding affinity; negative logarithm of the equilibrium dissociation constant) (converted)
experimental.readout: Ki (nM)
Kindly provide the numeric value in nM only, without the unit symbol.

Would you please look over these solved cases?
CCC1CCC(CC)N1[C@H]1C[C@@H](C)O[C@@H](O[C@@H]2[C@@H](C)[C@H](O[C@H]3C[C@@](C)(OC)[C@@H](O)[C@H](C)O3)[C@@H](C)C(=O)O[C@H](CC)[C@@]3(C)OC(=O)N(CCc4ccc(Cl)c(Cl)c4)[C@@H]3[C@@H](C)C(=O)[C@H](C)C[C@@]2(C)OC)[C@@H]1O (stereo partly drawn) [Example 9]: 1.74
CC[C@H]1OC(=O)[C@H](C)[C@@H](O[C@H]2C[C@@](C)(OC)[C@@H](O)[C@H](C)O2)[C@H](C)[C@@H](O[C@@H]2O[C@H](C)C[C@H](N3CCCCC3)[C@H]2O)[C@](C)(OC)C[C@@H](C)C(=O)[C@H](C)[C@H]2N(CCc3ccc(F)c(Cl)c3)C(=O)O[C@]12C [Example 4]: 5.62

API: the following record is the query input.
-- ask What value of Ki has been recorded for this entry: CC[C@H]1OC(=O)[C@H](C)[C@@H](O[C@H]2C[C@@](C)(OC)[C@@H](O)[C@H](C)O2)[C@H](C)[C@@H](O[C@@H]2O[C@H](C)C[C@H](N3C(C4CC4)CCCC3C3CC3)[C@H]2O)[C@](C)(OC)C[C@@H](C)C(=O)[C@H](C)[C@H]2N(CCc3ccc(F)c(Cl)c3)C(=O)O[C@]12C (stereo partly drawn) [Example 11]
-- reply 1.17

Reference for the values: patent US6387885B1
